assay.notes: in vitro
conditions.used: human, hela cells, % viability
Measured viability at 28.5 h, 10 µM of individual entries

# compound, readout.unit, viability at 28.5 h, 10 µM
data = [
    ("CN1C(=S)SC(C)(N(O)C(=O)NC2CCCCC2)C1(C)C (stereo not shown)", "%", 110),
    ("O=C(O)CCN1CCC2(CCN(C(=O)c3cc(F)c(F)cc3F)C2)C1 (stereo not shown)", "%", 86.8),
    ("COc1ccc(NC(=O)N[C@H]2[C@H](O)[C@@H](N3CCOCC3)[C@@H]3OC[C@H]2O3)cc1", "%", 101),
    ("O=C(NC1CCCCC1)NS(=O)(=O)c1ccc(CCNC(=O)c2cccs2)cc1", "%", 86.3),
    ("Cn1c(=O)[nH]c(=O)c2c1nc(N1CCOCC1)n2CCCSc1nc2ccccc2s1", "%", 92.7),
    ("Cn1ncc2c1CCCN(C(=O)CCc1ccccc1F)C2", "%", 96.8),
    ("CC(C)CNC(=O)C(=O)NCCc1ccc(F)cc1", "%", 105),
    ("Cc1cc2nccc(C3CCCN(C(=O)OC(C)(C)C)C3)n2n1 (stereo not shown)", "%", 90.8),
    ("COc1c(Br)cc(/C=C2\\SC(=O)NC2=O)cc1Br", "%", 101),
    ("Cc1ccccc1C1(O)CCN(CC(O)c2ccc(F)cc2)CC1 (stereo not shown)", "%", 87.7),
    ("Cc1nc2ccccc2n1CC(=O)NCCN1CCCC1", "%", 113),
    ("CC(NC(=O)/C=C\\C(=O)O)c1ccc2c(c1)OCO2 (stereo not shown)", "%", 93.3),
    ("CCC(Oc1ccccc1C)C(=O)Nc1ccccc1C(=O)N(C)C (stereo not shown)", "%", 88.4),
    ("CS(=O)(=O)c1ncc(Cl)c(C(=O)N(Cc2ccccc2)Cc2ccco2)n1", "%", 29.3),
    ("Cc1nc(CN2CCCC3(CCN(C(=O)c4ccoc4)C3)C2)cs1 (stereo not shown)", "%", 97.6),
    ("CCOC(=O)c1ccc(S(=O)(=O)Nc2cc(C(=O)O)ccc2F)cc1", "%", 84),
    ("O=C(Nc1cc2ccccc2c(Br)n1)N[C@@H]1C[C@H]1c1ccccc1", "%", 92.3),
    ("Nc1ncc(-c2cc(C(F)(F)F)cc(C(F)(F)F)c2)nc1NCCCO", "%", 105),
    ("COc1ccc(-c2cc3cccnc3n2CC(=O)N2CCCC2)cc1", "%", 84.3),
]
